Below, each entry is listed with its recorded EC50.
Biological target: T1, recombinant human Nectin4 antigen (human, UniProt Q96NY8 32-349)
T1 construct: construct not described
T1 sequence (looked up): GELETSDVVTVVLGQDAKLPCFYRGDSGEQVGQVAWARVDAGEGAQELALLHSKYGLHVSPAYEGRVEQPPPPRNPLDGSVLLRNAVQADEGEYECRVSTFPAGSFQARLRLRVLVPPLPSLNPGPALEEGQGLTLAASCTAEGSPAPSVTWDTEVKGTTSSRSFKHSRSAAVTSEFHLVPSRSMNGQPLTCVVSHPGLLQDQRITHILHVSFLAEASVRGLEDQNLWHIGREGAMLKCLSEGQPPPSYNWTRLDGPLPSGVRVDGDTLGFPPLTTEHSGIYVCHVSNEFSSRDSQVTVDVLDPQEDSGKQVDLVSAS
Assay: ELISA, coated antigen, PSB pH 6.0
VALUE TYPE: EC50

* BAP-143-06-33-03 (antibody, V domains shown, Used as a conjugate with a linker payload (CAB ADC)) VH: QVQLVQSGAEVKKPGASVKVSCKASGFTFSSYNMNWVRQARGQRLEWIGYISSSSSTIYYADSVKGRFTISRDNSKNTLYLQMNSLRAEDTAVYYCARAYYYGMDKWGQGTLVTVSS VL: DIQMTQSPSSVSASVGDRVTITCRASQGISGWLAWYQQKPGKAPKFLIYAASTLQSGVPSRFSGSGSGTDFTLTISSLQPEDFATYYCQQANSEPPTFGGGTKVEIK | 0.0575 µg/mL
* BAP-143-06-33-16 (antibody, V domains shown, Used as a conjugate with a linker payload (CAB ADC)) VH: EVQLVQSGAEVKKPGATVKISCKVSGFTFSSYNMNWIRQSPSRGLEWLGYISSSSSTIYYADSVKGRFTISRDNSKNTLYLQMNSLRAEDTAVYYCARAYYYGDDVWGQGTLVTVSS VL: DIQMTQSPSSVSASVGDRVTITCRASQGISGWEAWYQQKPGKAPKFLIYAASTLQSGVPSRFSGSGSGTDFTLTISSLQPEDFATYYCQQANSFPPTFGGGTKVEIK | 0.0669 µg/mL
* BAP-143-07-03-12 (antibody, V domains shown, Used as a conjugate with a linker payload (CAB ADC)) VH: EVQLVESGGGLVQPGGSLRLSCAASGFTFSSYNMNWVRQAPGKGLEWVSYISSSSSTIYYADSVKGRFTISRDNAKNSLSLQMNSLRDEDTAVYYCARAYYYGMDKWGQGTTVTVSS VL: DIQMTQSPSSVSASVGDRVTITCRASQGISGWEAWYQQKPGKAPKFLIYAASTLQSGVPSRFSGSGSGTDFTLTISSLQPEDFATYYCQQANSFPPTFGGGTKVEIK | 0.0533 µg/mL
* BAP-143-wildtype (antibody, V domains shown, 150 kDa used in SPR; also called BAP143-00-00; benchmark (BM)) VH: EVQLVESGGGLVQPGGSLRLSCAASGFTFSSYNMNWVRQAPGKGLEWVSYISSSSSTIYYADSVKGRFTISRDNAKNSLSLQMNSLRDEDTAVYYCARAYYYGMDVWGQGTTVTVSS VL: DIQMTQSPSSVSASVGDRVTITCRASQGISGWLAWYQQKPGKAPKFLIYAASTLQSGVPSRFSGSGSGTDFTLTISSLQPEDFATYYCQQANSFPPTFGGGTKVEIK | 0.0216 µg/mL

FYI, the data here is from patent US20230235054A1.
